- protocol: NCI Yeast Anticancer Drug Screen. Data for the mlh1 rad18 strain (AID 175)
- details: S. cerevisiae mlh1 rad18 strain growth inhibition; at 5.0 µM (retest, dose inferred, filed as 0.5); hits give high values
About 79,000 compounds went through this panel and 15% of them were active in at least one assay; those are over-represented in the sample as a whole. Activity calls are given as the source filed them. Rule as the data show it: active = growth inhibition above about 70%; inactive = the rest.
result type: growth inhibition

• O=C(O)c1ccc(C(c2ccccc2)c2ccccc2)cc1 = 8% (inactive)
• C=C1CC2(CC(c3ccccc3OC)OC(c3ccccc3OC)C2)OC1=O (stereo not given) = 40% (inactive)
• O=S(=O)(c1ccc(F)cc1)c1ccc(F)cc1 = 3% (inactive)
• CN(C)Cc1c(O)ccc2ccccc12 = 2% (inactive)
• CN(C)Cc1cc(CN(C)C)c(O)c(CN(C)C)c1 = -6% (inactive)
• NS(=O)(=O)c1ccc(Nc2c3ccccc3nc3c(C(=O)N4CCN(CCO)CC4)cccc23)cc1 = 30% (inactive)
• O=C1c2cccc(O)c2C(=O)c2c(O)cccc21 = 42% (inactive)
• O=C(COc1ccc(Cl)cc1Cl)Nc1cccc(C(F)(F)F)c1 = 1% (inactive)
• O=C1N(c2ccccc2)C(=O)N1c1ccccc1 = -16% (inactive)
• Cc1cc(/C=C/C2CCC3CC(C)CCC3N2CCO)c(C)n1-c1ccccc1 (stereo not given) = 17% (inactive)

-- ask Fill in: growth inhibition of Nc1cc2ccc(O)cc2c2ccccc12 is ___
-- reply -1% (inactive)

-- ask Subsequent entry: O=C1OC(c2cccnc2)OC(c2ccccc2)=C1C(=O)c1ccccc1 (stereo not given)
-- reply 33% (inactive)

-- ask Subsequent entry: Clc1nc2nc(Cl)c(Cl)n2nc1Cl
-- reply -8% (inactive)

-- ask Subsequent entry: CCN(CCO)CCNc1ccc(C)c2sc3ccccc3c(=O)c12
-- reply 23% (inactive)

-- ask Subsequent entry: O=C(C(c1ccccc1)c1ccccc1)C(c1ccccc1)c1ccccc1
-- reply 0% (inactive)

-- ask Subsequent entry: CC(O)CN1CCN(CC(C)O)CC1.[I][Pt+2][I] (stereo not given)
-- reply -2% (inactive)

-- ask Subsequent entry: CC[N+](CC)=c1ccc2nc3c(cc(N)c4ccccc43)oc-2c1
-- reply -6% (inactive)

-- ask Subsequent entry: CN(C)c1ccc(/C=C/c2ccnc3ccccc23)c(Cl)c1
-- reply -13% (inactive)

-- ask Subsequent entry: CS(=O)(=O)OCCN(CCOS(C)(=O)=O)c1ccc(C=Nc2ccc(-c3csc(Cc4ccccc4)n3)cc2)c(Cl)c1
-- reply 15% (inactive)

-- ask Subsequent entry: CCCCCCCN
-- reply -5% (inactive)

-- ask Subsequent entry: Cc1ccc(S(=O)(=O)NC2CCCCCCC2)cc1
-- reply 40% (inactive)

-- ask Subsequent entry: CCC(C)c1ccc(O)c(C(C)CC)c1 (stereo not given)
-- reply 44% (inactive)

-- ask Subsequent entry: Cc1c(C)c(CCl)c(C)c(C)c1CCl
-- reply 66% (inactive)

-- ask Subsequent entry: Fc1cccc(CSC(=S)Nc2ccc(F)c(F)c2)c1
-- reply 8% (inactive)

-- ask Subsequent entry: Cc1cc(NS(=O)(=O)c2ccc(N=Nc3cc(N=Nc4ccc(S(=O)(=O)Nc5cc(C)nc(C)n5)cc4)c4c(NC(=O)C(Cl)Cl)cccc4c3OC(=O)C(Cl)Cl)cc2)nc(C)n1 (tested in a mixture with another compound)
-- reply 21% (inactive)

The reported numbers originate from PubChem BioAssay (NCI).
